target: PAR2 (HT-29 cells) (Homo sapiens); construct: host or cells: HT-29; assay: Ca FLIPR TETRA assay, ANTAGONIST mode, activator 3.1 U/mL trypsin; type: cell-based; settings: HT-29 cells; activator 3.1 U/mL trypsin; Method A: maximal concentration of antagonist 0.1, 1 or 2 μM
assayEndpoint: pIC50
Scale: negative log10 of molar concentration, which is what pIC50 denotes.

**Query** What value of pIC50 has been recorded for this entry: `CC(C)(C)c1cc(-c2ccc(Cl)c(F)c2)nc2cc(C(=O)N3CCN(c4ccncc4)C(=O)C3(C)C)oc12`
**Result** 7.92

**Query** What value of pIC50 has been recorded for this entry: `CC(C)(C)c1cc(-c2ccc(Cl)cc2)nc2cc(C(=O)N3CCN(C(=O)[C@@H]4CCCC[C@H]4C(=O)O)CC3(C)C)oc12`
**Result** 7.31

**Query** What value of pIC50 has been recorded for this entry: `Cc1cc(N2CCN(C(=O)c3cc4nc(-c5ccc(Cl)cc5)cc(C(C)(C)C)c4o3)C(C)(C)C2)ncn1`
**Result** 7.90

**Query** What value of pIC50 has been recorded for this entry: CC1(C)CCC(c2cc(C(C)(C)C)c3oc(C(=O)N4CCC(c5ncc(C(=O)O)cn5)CC4(C)C)cc3n2)CC1 (stereo not drawn)
**Result** 9.10

**Query** What value of pIC50 has been recorded for this entry: `CC(C)(C)c1cc(-c2ccc(Cl)c(F)c2)nc2cc(C(=O)N3CCN(C(=O)CC4(C(=O)O)CCCC4)CC3(C)C)oc12`
**Result** 9.40

**Query** What value of pIC50 has been recorded for this entry: `CC(C)(C)c1cc(-c2ccc(Cl)c(F)c2)nc2cc(C(=O)N3CCN(c4cccnc4)C(=O)C3(C)C)oc12`
**Result** 7.70

###

Target: PAR2 (HT-29 cells) (Homo sapiens, UniProt P55085)
Construct: host or cells: HT-29
Sequence (P55085 26-397): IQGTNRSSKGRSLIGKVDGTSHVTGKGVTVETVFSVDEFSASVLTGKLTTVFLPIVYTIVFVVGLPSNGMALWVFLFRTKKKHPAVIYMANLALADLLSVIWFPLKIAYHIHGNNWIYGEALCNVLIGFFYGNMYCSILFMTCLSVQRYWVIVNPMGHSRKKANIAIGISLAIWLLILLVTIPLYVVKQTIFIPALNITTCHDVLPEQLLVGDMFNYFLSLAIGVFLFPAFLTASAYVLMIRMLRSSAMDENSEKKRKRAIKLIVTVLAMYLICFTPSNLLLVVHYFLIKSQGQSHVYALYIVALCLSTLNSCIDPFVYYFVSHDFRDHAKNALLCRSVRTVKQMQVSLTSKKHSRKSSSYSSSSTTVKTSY
Test: Ca FLIPR TETRA assay, ANTAGONIST mode, activator 3.1 U/mL trypsin
Format: cell-based
Settings: HT-29 cells, activator 3.1 U/mL trypsin; maximal antagonist concentration per Method (A: 0.1, 1 or 2 μM; B: 50 μM)
assayEndpoint: IC50 (nM)
The answer is to be given in nM; state only the numeric part.

**Query** What value of IC50 has been recorded for this entry: `CC(C)(C)c1cc(-c2ccc(Cl)c(F)c2)nc2cc(C(=O)N3CCN(c4ccccn4)CC3(C)C)oc12`
**Result** 7.8

**Query** What value of IC50 has been recorded for this entry: `CC(C)c1cc(-c2ccc(F)cc2)nc2cc(C(=O)N3CCN(S(=O)(=O)c4cn(C)cn4)CC3(C)C)oc12`
**Result** 31

**Query** What value of IC50 has been recorded for this entry: `Cc1nnc(C(=O)N2CCN(C(=O)c3cc4nc(-c5ccc(F)cc5)cc(C(C)(C)C)c4o3)C(C)(C)C2)o1`
**Result** 9.1

**Query** What value of IC50 has been recorded for this entry: `CC(C)(C)c1cc(-c2ccc(Cl)cc2)nc2cc(C(=O)N3CCN(C(=O)[C@H]4C[C@@](C)(O)C4)CC3(C)C)oc12`
**Result** 1.1

**Query** What value of IC50 has been recorded for this entry: `CC1(C)C(=O)NCCN1C(=O)c1cc2nc(-c3ccc(F)cc3)cc(C3CCCC3)c2o1`
**Result** 10

**Query** What value of IC50 has been recorded for this entry: `CC(C)c1cc(-c2ccc(F)cc2)nc2cc(C(=O)N3CCN(C(=O)c4nnc[nH]4)CC3(C)C)oc12`
**Result** 13

**Query** What value of IC50 has been recorded for this entry: `CC(C)(C)c1cc(-c2ccc(F)cc2)nc2cc(C(=O)N3CCN(C(=O)C45CC(C(=O)O)(C4)C5)CC3(C)C)oc12`
**Result** 713
